- Test system: HIV in human T4 cells
- Protocol: Anti-HIV experiments performed at the Southern Research Institute (SRI)
- Format: cell-based
- Measurement setup: Human immunodeficiency virus 1, read-out: Inhibitory Concentration
Assay readout: IC50 (µM)
Please reply with the bare figure in µM and do not write the unit itself.

Lab note: measured IC50 of Nc1ccn([C@H]2CC[C@@H](CO)O2)c(=O)n1 [ddC, 2′,3′-dideoxycytidine, reference compound] was 0.3

====

- Test system: HIV in human T4 cells
- Protocol: Anti-HIV experiments performed at the Southern Research Institute (SRI)
- Assay type: cell-based
- Measurement setup: Human immunodeficiency virus 1; SRI experiments; read-out: Inhibitory Concentration
Quick list: pIC50 per entry.
Scale: pIC50 equals -log10([C]), with [C] in mol/L.

CC/C=C\C/C=C\C/C=C\C/C=C\C/C=C\C/C=C\CCC(=O)Nc1ccn([C@H]2CC[C@@H](COC(=O)CC/C=C\C/C=C\C/C=C\C/C=C\C/C=C\C/C=C\CC)O2)c(=O)n1
7.52

Lab note: measured pIC50 of Cc1cn([C@H]2CC(N=[N+]=[N-])[C@@H](CO)O2)c(=O)[nH]c1=O (stereo partly drawn) [AZT, reference compound] was 7.00

Lab note: measured pIC50 of `CC/C=C\C/C=C\C/C=C\C/C=C\C/C=C\C/C=C\CCC(=O)Nc1ccn([C@H]2CC[C@@H](CO)O2)c(=O)n1` was 8.16

Taken from patent US20020025943A1.
